system: MS2 coat protein; assay: apparent KD of MS2 coat protein; designed switch direction (-1 OFF switch, 1 ON switch): -1; higher = weaker reporter binding; conditions: input ligand: none
METRIC_NAME: apparent KD of MS2 coat protein
Please answer in the form of a number followed by its unit of measurement.

{"columns": ["RECORD_SEQUENCE", "RESULT"],
 "data": [
  ["UCCUCACAUGAGGAUCACCCAUGUCAGGAUAUCCAACAUGCUCCCAAAACCACGCAUCGGAGAAGGGACAUGCA [EX1 A.6] (Eterna round: R97, puzzle: Exclusion 1)", "17.7 nM"],
  ["GCACUGCGAGGAUAUACAUGAGGAUCACCCAUGUGUCGGCAGCCACGGUAGUACAAGUGUAGAAGGCGCGUUAG [EX3 #47] (Eterna round: R97, puzzle: Exclusion 3)", "69.1 nM"]
]}

In the following, a different sequence is considered.
Looking for the measured apparent KD of MS2 coat protein of AUUUGCACGCUGCGGUCCUACAUGAGGAUCACCCAUGUGGUCUGGUGGCGUGGGUCGCCGGACUUGGCUCGUCUUGA [salish99_S_TOV1_R5_032] (Eterna round: R97, puzzle: Sensor, turn-off variant 1) , can you help?
17.9 nM

====

test system: MS2 coat protein; test: apparent KD of MS2 coat protein; higher = weaker reporter binding; details: Eterna round: R107; input ligand: tryptophan 2.4 mM
METRIC_NAME: apparent KD of MS2 coat protein (nM)
Give the quantity in nM, number only.

{"columns": ["RECORD_SEQUENCE", "MEASURED_ON", "METRIC_NAME", "NUMERIC_RESULT"],
 "data": [
  ["CGCACAUGAGGAUCACCCAUGUGAGGGCGGCGAGGACCGGUACGGCCGCCACUCGCAGGACAUGAGGAUCACCCAUGUGCCGCCG [SSTA DOUBLE!!! :-D]", "MS2 coat protein", "apparent KD of MS2 coat protein", 351],
  ["CGAUCCUGCAGGGAUACCAGCGCCGCUUGAUAACUGUGCACAUGAGGAUCACCCAUGUAGCGCCCUUGGCAGCCCAGCUAGAGGG [Same State Theophylline B GF25]", "MS2 coat protein", "apparent KD of MS2 coat protein", 14.7],
  ["AAUUCCUCACAUGAGGAUCACCCAUGUGAAGGAGCGCCGAAUAAGGCAGGUAGGUCGCACAUGGAAACCUCUACGAAAGUAGUAA [XArg-A 3 NuV1V2]", "MS2 coat protein", "apparent KD of MS2 coat protein", 15.6]
]}

What value of apparent KD of MS2 coat protein has been reported for the following sequence? AUACAUGAGGAUCACCCAUGUAUAGUCGAUACCAGCUCAAGGAAGAGCCCUUGGCAGCGACACUGGUAUCCAUGGGUGAUACCAG [(Ms2)-(Theo)-(T)'-(M)'-(T)''_Design4]
19.3

Can you check CAAACAUGAGGAUCACCCAUGUAAUCAGAUACCAGUGACGAAAGUCACCCUUGGCAGCUGAGUACAUAUUGGCAGAGGUGUUUGA [EThA NP+V+V2 #7] next?
64.4

Another sequence to look at: ACUAACUAUAGUGAUACCAGACGUACAUGAGGAUCACCCAUGUUACAUUCUUGGUUAAAAGUCCCUUGGCAGCACGAUAAGUUCG [JR_Nu_ExcTheophyB_Sub025]
10
